Test: splicing luciferase reporter signal modulators, primary screen, spliceosome inhibition project, cell-based, HEK293, splice +/- reporter (AID 1101);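 also: HEK293 cells carrying a splicing-competent luciferase reporter gene; test concentration not given here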
Conditions: luminescence, 24 h, higher = more signal, called active from +8 up or from −8 down
Think of -0.7 as a floor: if z-score stands on it or above, it is fulfilled; beneath it, not fulfilled.

{"columns": ["compound", "labelValue"],
 "data": [
  ["CCOC(=O)C[C@H]1[C@H](OC(=O)c2ccc(-c3ccccc3)cc2)[C@@H](NC(=O)c2ccc(-c3ccccc3)cc2)c2cc(OCCCO)ccc2N1C(=O)c1ccccc1", "fulfilled"],
  ["COCCCNC(=O)[C@@]1(Cc2ccccc2I)c2ccccc2C(=O)N(C2CCCCC2)[C@H]1c1ccc(CO)cc1", "fulfilled"],
  ["COC(=O)[C@@]1(Cc2ccc(F)cc2)[C@H]2c3cc(C(=O)N(C)C)n(CCF)c3C[C@H]2CN1C(=O)c1ccccc1", "not fulfilled"],
  ["COCCOC(=O)N1C(=O)[C@@]2(c3cc(C#CCC(C(=O)OC)C(=O)OC)ccc31)[C@H](C(=O)N1CCc3cc(OC)c(OC)cc3C1)[C@H]1C(=O)O[C@H](c3ccccc3)[C@H](c3ccccc3)N1[C@@H]2c1ccccc1OCCO", "fulfilled"],
  ["O=C1OCCC/C=C\\[C@H]2OC34C=CCN(Cc5ccccc5)C(=O)[C@H]3N(CCO)C(=O)[C@@H]4C12 (some centres not stated)", "not fulfilled"],
  ["O=C1OC[C@@H](c2ccccc2)n2cc(/C=C/c3ccccc3)cc21", "not fulfilled"]
]}

* * *

z-score values by entry
Experiment: P. aeruginosa biofilm formation inhibitors, primary screen, strain PAO1, LB-PBS medium, absorbance 600 nm (AID 1176); also: test concentration not given here
Conditions: P. aeruginosa PAO1 growth/biofilm, A600, 12 h; higher = more signal
reportedMetric: z-score

{"columns": ["compound", "val"],
 "data": [
  ["CC1C2C(CCCO)=CC(C3C(=O)N(C(N)=O)C(=O)C23)N1Cc1cccc(OC(F)(F)F)c1 (configuration not stated)", 0.437],
  ["COC(=O)[C@]1(Cc2ccccc2N=[N+]=[N-])N=C(c2ccc(OCCCO)cc2)O[C@@H]1c1ccccc1CN=[N+]=[N-]", 1.16],
  ["COc1ccc(CCNC(=O)[C@@]2(C)c3ccccc3C(=O)N(Cc3ccc(OC(F)(F)F)cc3)[C@H]2c2ccc(CO)cc2)cc1", 1.05],
  ["C=C(/C=C\\CNS(=O)(=O)c1ccc(C)cc1)[C@H](O)[C@H]1CCCN1S(=O)(=O)c1ccccc1[N+](=O)[O-]", 1.21],
  ["COC(=O)C1=CC(c2ccc(CO)cc2)=CC(C2CC2)N(Cc2cc3c(cc2Br)OCO3)C=C1C(=O)OC (configuration not stated)", 0.158],
  ["C=C(C(=O)CC[C@H](OC(=O)c1ccccc1-c1ccccc1C(=O)O)c1ccc(OCCO)cc1)C(C)C", 0.509],
  ["O=C1O[C@H](c2ccccc2)[C@H](c2ccccc2)N2[C@H]1[C@@H](C(=O)N1CCN(c3ncccn3)CC1)[C@]1(C(=O)Nc3ccc(C#CC4(O)CCCCCC4)cc31)[C@H]2c1ccc(O)cc1", 1.05]
]}

* * *

z-score values by entry
Test: modulators of S6 phosphorylation in cells, primary screen, cell-based, A549, cytoblot, luminescence, serum-stimulated (AID 1158);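 also: serum-stimulated A549 lung adenocarcinoma cells; signal is phosphorylated S6 detected by cytoblot immunostaining with HRP secondary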
Settings: A549 phospho-S6 cytoblot, 5 h, higher = more signal

{"columns": ["compound", "z-score"],
 "data": [
  ["CC[C@H]1C2=C3C(CC[C@H]4C(OCc5ccc(F)cc5C(F)(F)F)OC[C@](C)([C@@H]34)N(C(=O)OC(C)(C)C)C2)C(COC(C)=O)C1COC(C)=O (some centres undefined)", -0.772],
  ["CC[C@@H](O[Si](C#C[Si](C(C)C)(C(C)C)C(C)C)(C(C)C)C(C)C)c1cn([C@H](C)c2ccccc2)nn1", -0.711],
  ["C=C(COC)C(=O)CC[C@H](OC(C)=O)c1ccccc1OCCO", 1.2],
  ["O=C1O[C@@H](c2ccccc2)[C@@H](c2ccccc2)N2[C@@H](c3ccccc3OCCO)[C@]3(C(=O)Nc4ccc(C#CC5(O)CCCCCC5)cc43)[C@@H](C(=O)N3CCCCCCC3)[C@H]12", 1.76]
]}

* * *

composite z-score values by entry
Target: Torsin-1A-interacting protein 1 (Homo sapiens) (UniProt Q5JTV8)
Sequence (Q5JTV8 whole entry, looked up): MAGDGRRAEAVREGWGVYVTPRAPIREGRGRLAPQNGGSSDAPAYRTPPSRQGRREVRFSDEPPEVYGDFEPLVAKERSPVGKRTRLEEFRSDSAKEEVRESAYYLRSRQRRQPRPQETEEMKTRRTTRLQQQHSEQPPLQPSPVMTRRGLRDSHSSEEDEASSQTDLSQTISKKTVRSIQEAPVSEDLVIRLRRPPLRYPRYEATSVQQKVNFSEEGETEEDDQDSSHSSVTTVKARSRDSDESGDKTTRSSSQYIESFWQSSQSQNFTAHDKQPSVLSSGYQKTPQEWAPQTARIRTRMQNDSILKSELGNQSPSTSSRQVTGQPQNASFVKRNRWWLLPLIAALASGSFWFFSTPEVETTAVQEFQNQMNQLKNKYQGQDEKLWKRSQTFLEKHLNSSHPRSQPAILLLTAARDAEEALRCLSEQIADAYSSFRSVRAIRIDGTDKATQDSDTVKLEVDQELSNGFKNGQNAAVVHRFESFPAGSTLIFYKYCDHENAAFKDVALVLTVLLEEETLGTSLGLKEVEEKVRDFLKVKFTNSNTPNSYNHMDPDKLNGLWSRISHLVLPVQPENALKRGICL
Assay: LAP1 binders from COS7 cell lysate, primary screen, small-molecule microarray, 635/667 nm fluorescence (AID 1116)
Details: COS7-hLAP1 lysate binding, 635 nm fluorescence, higher = more signal

{"columns": ["compound", "composite z-score"],
 "data": [
  ["COc1ccc([Si](C)(C)[C@@H]2[C@@H](CC(=O)N3CCC[C@H]3CO)O[C@]3(C(=O)N(Cc4cccc(N5C(=O)c6cccc7cccc5c67)c4)c4ccccc43)[C@H]2C)cc1", 2.23],
  ["COCCCNC(=O)[C@]1(Cc2ccccc2CN=[N+]=[N-])N=C(c2ccc(OCCCO)cc2)O[C@@H]1c1ccccc1N=[N+]=[N-]", 0.939],
  ["CCOC(=O)C[C@H]1[C@H](OC(=O)c2ccccc2-c2ccccc2)[C@@H](NC(=O)CC(C)C)c2cc(OCCCO)ccc2N1C(=O)c1ccccc1", 0.222],
  ["COc1cc(Cc2cc3c(c(-c4ccccc4)n2)[Si](C(C)C)(C(C)C)OC3)cc(OC)c1OC", -0.181],
  ["Cc1ccc(N2C(=O)c3ccccc3[C@@H](C(=O)NCCN3CCOCC3)[C@@H]2c2ccc(CO)cc2)nc1", -1.3],
  ["CC(=O)NCCCC[C@@H]1NC(=O)[C@H]2C[C@@H](C(=O)NCCCCCN)[C@@H](c3ccc(O)cc3)N2C1=O", 0.852],
  ["Cc1ccc(S[C@]2(C(=O)NCCN3CCOCC3)CC(=O)N(C(C)C)[C@@H]2c2ccc(CO)cc2I)cc1", 0.974],
  ["CC(C)C(=C=CC[C@H](O)c1cccc(OCCO)c1)C[C@H](O)c1ccccn1", -0.334],
  ["COC(=O)[C@@]1(Cc2ccc(F)cc2)[C@H]2c3cc(C(=O)N(C)C)n(CCF)c3C[C@H]2CN1C(=O)c1ccccc1", 0.163],
  ["C[C@]1(C(=O)NCC(F)(F)F)c2ccccc2C(=O)N(Cc2cc(C(F)(F)F)cc(C(F)(F)F)c2)[C@H]1c1ccc(CO)cc1", 0.173],
  ["O=C(NCC(F)(F)F)[C@@H]1c2ccccc2C(=O)N(Cc2cc(C(F)(F)F)cc(C(F)(F)F)c2)[C@H]1c1ccc(CO)cc1", 0.653],
  ["Cc1ccc(S[C@]2(C(=O)NC3CC3)CC(=O)N(C3Cc4ccccc4C3)[C@@H]2c2ccc(CO)cc2I)cc1", -0.623],
  ["CC[C@H]1C2=C3C(CC[C@H]4C(OCc5ccc(F)cc5C(F)(F)F)OC[C@](C)([C@@H]34)N(C(=O)OC(C)(C)C)C2)C(COC(C)=O)C1COC(C)=O (some centres undefined)", 0.0366],
  ["O=C1C[C@@](C(=O)NCC(F)(F)F)(c2ccc([N+](=O)[O-])cc2)[C@@H](c2ccc(CO)cc2I)N1CC12CC3CC(CC(C3)C1)C2", 0.349],
  ["CC(C)C[C@@H]1NC(=O)[C@@H]2C[C@H](C(=O)NCCCCCCNC(=O)CS)[C@H](c3ccc(O)cc3)N2C1=O", 0.469],
  ["C=CCNC(=O)[C@H]1[C@@H]2C(=O)O[C@@H](c3ccccc3)[C@@H](c3ccccc3)N2[C@@H](c2ccc(O)cc2)[C@]12C(=O)N(C(=O)OCCOC)c1ccc(C#Cc3ccc(OC)cc3)cc12", 0.42],
  ["C=C[C@H](C)[C@@H](OC(=O)Nc1ccc(SC)cc1)c1ccc(OCCO)cc1", 0.248],
  ["C[C@@]1([C@@H](NS(=O)(=O)c2cccc3cccnc23)c2ccc(-c3ccccc3)cc2)C[C@H]1C1CCCCC1", 0.562],
  ["[N-]=[N+]=NCc1ccccc1[C@H]1OC(c2ccc(OCCCO)cc2)=N[C@@]1(Cc1ccccc1N=[N+]=[N-])C(=O)O", 0.765],
  ["CC(C)c1ccc(NN2C(C(O)C(C)c3ccccc3)C=CC3C(=O)N(c4ccccc4)C(=O)C32)cc1 (centres undefined)", 2.3],
  ["CCc1cccc(NC(=O)O[C@H]2[C@H](OC(=O)Nc3ccccc3-c3ccccc3)[C@H](OC(=O)Nc3ccccc3-c3ccccc3)[C@@H](OC)O[C@@H]2CO)c1", 1.81],
  ["CCOC(=O)C1=CCC(c2cccn2C(=O)OC(C)(C)C)N(S(=O)(=O)c2ccc(C)cc2)C1 (centres undefined)", 1.52],
  ["Cc1ccc(S[C@]2(C(=O)NCC(C)C)CC(=O)N(C(C)C)[C@@H]2c2ccc(CO)cc2I)cc1", 0.626],
  ["C[N+](C)(C)CCCC[C@@H]1NC(=O)[C@H]2C[C@@H](C(=O)NCCCCCN)[C@@H](c3ccc(O)cc3)N2C1=O", 1.52],
  ["O=C1NC(=O)C2C1C=CC(C(O)c1ccc(F)cc1)N2Nc1ccc(Cl)cc1Cl (centres undefined)", 0.68],
  ["O=C1OCCC/C=C\\[C@H]2OC34C=CCN(Cc5ccccc5)C(=O)[C@H]3N(CCO)C(=O)[C@@H]4C12 (some centres undefined)", -0.447],
  ["C[C@]1(C(=O)O)c2ccccc2C(=O)N(Cc2cc(C(F)(F)F)cc(C(F)(F)F)c2)[C@H]1c1ccc(CO)cc1", -0.0827],
  ["COc1cccc(C)c1NC(=O)O[C@H]1[C@H](OC(=O)Nc2ccccc2)[C@@H](OC(=O)Nc2ccccc2)[C@@H](OC)O[C@@H]1CO", 2.17],
  ["COc1ccc(NN2C(C(O)c3ccc(F)cc3)C=CC3C(=O)N(C4CCCCC4)C(=O)C32)cc1 (centres undefined)", 0.297]
]}
